Data credit: PubChem BioAssay (NCI)

- Test system: ACHN renal
- Measurement description: NCI tumour cell line growth inhibition, 48 h
Kindly state TGI for each of the entries shown.

Entry [Cl-].[Nd+3].[O-]/N=C(\c1ccccc1)c1ccccn1.[O-]/N=C(\c1ccccc1)c1ccccn1.[O-]/N=C(\c1ccccc1)c1ccccn1 , system ACHN renal: what TGI was measured? > 100 µM

Try the compound CCOc1ccc2nc(NC(=O)C(=O)C(C#N)CC(C)(C)C=O)sc2c1 (stereo unspecified) > 100 µM

Try the compound O=C(N/N=C/c1cc(Cl)cc(Cl)c1[O-])c1ccccc1O.O=C(N/N=C/c1cc(Cl)cc(Cl)c1[O-])c1ccccc1O.[Cl-].[Fe+3] 38.5 µM

Try the compound CC[C@@]1(O)C(=O)OCc2c1cc1n(c2=O)Cc2c-1nc1ccccc1c2Cl 0.0684 µM

Try the compound O=C1c2cccc(O)c2C(=O)c2cccc(O)c21 > 100 µM

Try the compound O=C(O)CCCNS(=O)(=O)c1ccccc1 > 100 µM

Try the compound C=C1C(=O)O[C@H]2[C@H]1CC/C(COC(=O)/C=C\C(=O)NCc1ccc(Cn3c(=O)sn(CCCI)c3=O)cc1)=C\CC[C@@]1(C)O[C@@H]21 1.04 µM

Try the compound O=C1c2cc3ccccc3cc2C2(c3ccc(Cl)cc3)NCCN12 (stereo unspecified) > 100 µM

Try the compound CN1c2ccccc2NC(CC(=O)O)C2CC=CN21 (stereo unspecified) > 100 µM

Try the compound CC(=O)N1C(Nc2cnc3ccccc3c2)CCN1c1ccccc1 (stereo unspecified) > 10 µM

Try the compound COC(=O)C1Cc2c([nH]c3ccccc23)C(c2ccccc2O)N1 (stereo unspecified) > 100 µM

Try the compound C=CCOC(=O)C[C@H](NC(=O)[C@H](Cc1ccc(O)cc1)NCC(F)(F)F)C(=O)OCC=C > 100 µM

Try the compound CCOC(=O)C1=C(OC(OCC)C(C)[Se]c2ccccc2)CCC1 (stereo unspecified) 68.4 µM

Try the compound ClC1=C(Cl)C(Cl)(Cl)SS1 > 10 µM

Try the compound O=S(=O)(Nc1ccc(Cl)cc1)c1ccc(-c2cnc(C3CC3)o2)cc1 18.1 µM

Try the compound COC(=O)C1CCC2(C)[C@H](CCC3O[C@]32C)[C@@]1(C)CC(=O)c1ccoc1 (stereo partly specified) > 100 µM

Try the compound COc1cc2c(cc1OCc1ccccc1)N=CC1C[C@@H](O)CN1C2=O (stereo partly specified) 50 µM

Try the compound O=C(CCCCN1CCOCC1)Nc1ccc(Cn2nnc3c2C(=O)c2nnn(Cc4ccc(NC(=O)CCCCN5CCOCC5)cc4)c2C3=O)cc1 1.81 µM

Try the compound CC(=N\O)/C(C)=N/O.CC(=N\O)/C(C)=N/O.CC(=N\O)/C(C)=N/O.CC(=N\O)/C(C)=N/O.[CH3-].[CH3-].[Co].[Co] > 100 µM

Try the compound Cc1cc(Oc2ccccc2)ccc1Nc1ncnc2ccc(-c3cnc(Cl)c(NS(C)(=O)=O)c3)cc12 15.5 µM

Try the compound O=C(c1cccs1)N(C(=S)N1CCN(c2ccccc2)CC1)C1CCCCC1 > 100 µM

Try the compound CCOC(=O)c1ccc(NC(=O)O/N=C(/Cl)CC)cc1 22.9 µM

Try the compound C=CCc1cccc2cc(C(N)=O)c(=N)oc12 > 100 µM

Try the compound CN(C)CCCNCc1ccc(-c2ccc(F)c(Cl)c2)o1 32.7 µM

Try the compound CC1(C)NC(C)(C)/C(=N\O)C(=NO)/C1=N/O > 100 µM

Try the compound CCOC(=O)/C(C#N)=C/c1ccc(SCc2ccco2)c([N+](=O)[O-])c1 > 100 µM

Try the compound C=C1C(NC)CCC23CC24CCC2(C)C(C(C)=O)C(O)CC2(C)C4CCC13 (stereo unspecified) > 100 µM

Try the compound C/C=C1\C(=O)O[C@H]2C/C(C)=C/CC/C(C)=C/CC[C@@]3(C)O[C@@H]3C[C@@H]12 > 100 µM

Try the compound c1ccc2c3ccn4ccc5c6ccccc6[nH]c5c4c-3nc2c1 2.74 µM

Try the compound CSC(=NC#N)S/C=C/C(=O)c1ccc(Cl)cc1 > 100 µM

Try the compound NC1C(O)C(O)C(CO)OC1n1cc(F)c(=O)[nH]c1=O (stereo unspecified) > 100 µM

Try the compound Cc1ccc(NC(=O)SCCC(=O)O)cc1 > 100 µM

Try the compound OCc1ccc(N(Cc2ccc(F)cc2)CC2CC2)cc1Cl 24 µM

Try the compound COc1cc(/C=C2\N=C(c3ccccc3)N(c3nc4ccc(Sc5ccccc5)cc4[nH]3)C2=O)ccc1O 86 µM

Try the compound CSC(Cc1ccc2c(c1)Sc1ccccc1O2)=[N+]1CCOCC1 > 100 µM

Try the compound COc1cc2c[n+](C)c3c4cc(OC)c(OC)cc4c(OCc4ccccc4)cc3c2cc1OC > 100 µM

Try the compound CCCc1[nH]nc(C(N)=O)c1N=NN(C)C > 100 µM

Try the compound COc1ccc(N2CCN(C(=O)c3ccc(C(F)(F)F)nc3Nc3cc(Cl)ccc3C)CC2)cc1 31.1 µM

Try the compound O=c1ccc2nc(C(F)(F)F)nn(-c3ccccc3)c-2c1 2.45 µM

Try the compound O=c1[nH]c2cc(F)c(F)cc2nc1Cc1ccccc1 > 100 µM

Try the compound CCOC(=O)/C=C\c1c(Cl)n(-c2ccccc2)c(=O)n(-c2ccccc2)c1=O 35.1 µM
